These data points were gathered from paper PMC4207660.

molecular target: UniProtKB Q13464; assay: Human kinase selectivity screening: ROCK1; format: biochemical; conditions: read-out: ROCK1 pIC50 values (converted)
Sequence (Q13464 whole entry): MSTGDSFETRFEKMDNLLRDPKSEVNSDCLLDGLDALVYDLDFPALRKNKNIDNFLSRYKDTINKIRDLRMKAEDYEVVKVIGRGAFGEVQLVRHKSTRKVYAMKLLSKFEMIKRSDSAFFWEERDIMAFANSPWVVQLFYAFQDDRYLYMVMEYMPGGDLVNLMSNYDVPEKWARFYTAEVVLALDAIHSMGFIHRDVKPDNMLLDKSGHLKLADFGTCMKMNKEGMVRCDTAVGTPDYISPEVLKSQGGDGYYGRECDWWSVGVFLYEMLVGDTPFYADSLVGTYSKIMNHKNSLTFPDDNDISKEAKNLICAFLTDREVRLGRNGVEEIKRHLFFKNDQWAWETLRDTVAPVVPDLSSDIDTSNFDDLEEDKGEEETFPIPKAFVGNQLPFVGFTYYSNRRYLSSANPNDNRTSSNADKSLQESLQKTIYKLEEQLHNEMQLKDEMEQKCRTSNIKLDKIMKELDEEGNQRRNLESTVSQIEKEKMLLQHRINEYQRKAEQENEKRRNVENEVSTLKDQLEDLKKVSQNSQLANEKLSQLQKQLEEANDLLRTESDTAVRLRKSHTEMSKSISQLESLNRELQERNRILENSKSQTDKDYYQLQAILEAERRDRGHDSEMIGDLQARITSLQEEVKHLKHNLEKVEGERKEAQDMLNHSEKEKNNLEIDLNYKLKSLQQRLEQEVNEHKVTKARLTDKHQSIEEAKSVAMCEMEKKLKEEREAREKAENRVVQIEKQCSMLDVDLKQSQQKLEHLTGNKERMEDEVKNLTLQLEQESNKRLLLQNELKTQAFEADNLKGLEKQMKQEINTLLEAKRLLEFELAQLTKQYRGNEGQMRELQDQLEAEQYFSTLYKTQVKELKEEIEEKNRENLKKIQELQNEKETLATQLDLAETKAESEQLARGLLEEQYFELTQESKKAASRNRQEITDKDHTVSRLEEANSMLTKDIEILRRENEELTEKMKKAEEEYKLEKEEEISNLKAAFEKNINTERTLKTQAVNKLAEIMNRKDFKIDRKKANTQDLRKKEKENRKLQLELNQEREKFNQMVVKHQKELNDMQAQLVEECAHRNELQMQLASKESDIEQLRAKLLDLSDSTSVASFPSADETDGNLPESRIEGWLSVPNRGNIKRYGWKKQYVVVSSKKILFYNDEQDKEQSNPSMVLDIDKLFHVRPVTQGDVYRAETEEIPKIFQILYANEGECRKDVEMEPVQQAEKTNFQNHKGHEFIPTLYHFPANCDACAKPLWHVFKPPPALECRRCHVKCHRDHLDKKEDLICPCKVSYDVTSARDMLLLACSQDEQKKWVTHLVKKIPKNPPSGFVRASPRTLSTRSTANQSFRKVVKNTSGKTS
MEASURED_ATTRIBUTE: IC50 (µM)
Value expressed in µM; do not type the unit.

QUERY: Value wanted: IC50 (UniProtKB Q13464) of entry `CCCNc1nc(Nc2cnn(C)c2)c2c(=O)[nH]ccc2n1`
RESULT: 1.26

QUERY: What IC50 appears in the records for this compound with UniProtKB Q13464? `CN(C)Cc1ccc(-c2[nH]c3ncc(C#N)cc3c2-c2ccccc2)cc1`
RESULT: 12.6

QUERY: Observed IC50 on UniProtKB Q13464 for `Cc1cc(Nc2cc(C3CC3)[nH]n2)nc(N2CCCCC2)n1` , please.
RESULT: 20

QUERY: Item `Cn1cc(-c2cnc3[nH]cc(-c4cccc(C#N)c4)c3c2)cn1` with UniProtKB Q13464 - IC50?
RESULT: 0.794

QUERY: Enter reported IC50 observed with UniProtKB Q13464 for O=C(Nc1ccc(-c2ccnc3[nH]ccc23)s1)C1(Cc2ccccc2)CCCNC1 (stereo not shown)
RESULT: 0.00631
